# STUDY_TARGET: 14-3-3β/CFTRpS753pS768 complex (Homo sapiens, UniProt P13569+P31946)
# Construct: His6 (cleaved yes); made in house; peptide synthetic
# Sequence (P31946 whole entry): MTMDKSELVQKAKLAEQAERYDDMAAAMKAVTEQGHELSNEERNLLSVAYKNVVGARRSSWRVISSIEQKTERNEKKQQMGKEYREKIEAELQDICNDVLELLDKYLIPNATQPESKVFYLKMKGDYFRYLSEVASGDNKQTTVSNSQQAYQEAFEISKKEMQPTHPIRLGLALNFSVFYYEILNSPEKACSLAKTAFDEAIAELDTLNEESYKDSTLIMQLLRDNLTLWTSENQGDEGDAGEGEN
# Sequence (P13569 747-774 limits assumed): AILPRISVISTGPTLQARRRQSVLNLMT
# ASSAY_PROCEDURE: Dose-response fluorescence polarization (FP) assay, compound titration
# Type: binding
# CONDITION: With 14-3-3; compound 0.001 M
MEASURE: FP signal
Could you keep your reply to the number by itself?

COMPOUND	FP signal
N=C(N)NCCCC1NC(=O)C(CCC(N)=O)NC(=O)C(CCCNC(=N)N)NC(=O)C2CCCN2Cc2cccc(c2)-c2ccccc2CNC1=O (stereo not drawn) [CY007458]	252
C=CC(C)(C)OC[C@H]1O[C@H](O[C@@H]2C3=C([C@H](C)COC(C)=O)C[C@H](O)[C@]3(C)/C=C3/[C@@H](COC)CC[C@H]3[C@@H](C)[C@H]2O)[C@H](O)[C@@H](OC(C)=O)[C@@H]1O [FC-A, fusicoccin A, reference compound]	133

Here's the next entry for you.
Input: Report FP signal, nothing else, for this compound: N=C(N)NCCCC1NC(=O)C(CCCCN)NCc2ccccc2Sc2ccccc2CNC(=O)C(Cc2ccc(O)cc2)NC1=O (stereo not drawn)
Output: 252

----------
As shown below, each of these molecules has a reported FP signal value.
# STUDY_TARGET: FITC-labeled CFTRpS753pS768 peptide (no 14-3-3) (Homo sapiens)
# Construct: made in house; host or cells: synthetic peptide
# ASSAY_PROCEDURE: Dose-response FP control assay in the absence of 14-3-3
# Type: binding
# CONDITION: No 14-3-3; compound 1.90735e-9 M
Could you keep your reply to the number by itself?

>>> print(df.to_string())
                                   molecule                              study_target  measurement
0  N=C(N)NCCCC1NCc2ccccc2Sc2ccccc2CNC(=O)C(Cc2ccc(O)cc2)NC(=O)C(CCCN)NC1=O (stereo not drawn) [CY007424]  FITC-labeled CFTRpS753pS768 peptide (no 14-3-3) (Homo sapiens)            5
1  N=C(N)NCCCC1NC(=O)C(CCC(N)=O)NC(=O)C(CCCNC(=N)N)NC(=O)C2CCCN2Cc2cccc(c2)-c2ccccc2CNC1=O (stereo not drawn) [CY007455]  FITC-labeled CFTRpS753pS768 peptide (no 14-3-3) (Homo sapiens)            3

Input: Report FP signal, nothing else, for this molecule: CC1NC(=O)C(CCCNC(=N)N)NC(=O)C2CCCN2Cc2cccc(c2)-c2ccccc2CNC(=O)C(CCCNC(=N)N)NC1=O (stereo not drawn) [CY007476]
Output: 2

----------
# STUDY_TARGET: FITC-labeled CFTRpS753pS768 peptide (no 14-3-3) (Homo sapiens, UniProt P13569)
# Construct: made in house; host or cells: synthetic peptide
# ASSAY_PROCEDURE: Dose-response FP control assay in the absence of 14-3-3
# Format: binding
# CONDITION: No 14-3-3; compound 0.0005 M
MEASURE: FP signal
Could you keep your reply to the number by itself?

>>> print(df.to_string())
                                   molecule  measurement
0  CN1CC(=O)NC(CCCNC(=N)N)C(=O)NC(CCC(N)=O)C(=O)NC(CCCNC(=N)N)C(=O)NCc2ccccc2-c2cccc(c2)C1 (stereo not drawn) [CY007491]          193
1  CC1NC(=O)C(CCCNC(=N)N)NC(=O)C2CCCN2Cc2cccc(c2)-c2ccccc2CNC(=O)C(CCCNC(=N)N)NC1=O (stereo not drawn) [CY007476]          230

Here's the next entry for you.
Input: Report FP signal, nothing else, for this molecule: N=C(N)NCCCC1NC(=O)C(CCC(N)=O)NC(=O)C(CCCNC(=N)N)NC(=O)C2CCCN2Cc2cccc(c2)-c2ccccc2CNC1=O (stereo not drawn) [CY007455]
Output: 209

----------
# STUDY_TARGET: 14-3-3β/CFTRpS753pS768 complex (Homo sapiens, UniProt P13569+P31946)
# Construct: His6 (cleaved yes); made in house; peptide synthetic
# ASSAY_PROCEDURE: Dose-response fluorescence polarization (FP) assay, compound titration
# Format: binding
# CONDITION: With 14-3-3; compound 476.8 pM
As shown below, each of these molecules has a reported FP signal value.
Could you keep your reply to the number by itself?

// below: answered molecules
MOLECULE	FP signal
CC1NC(=O)C(CCCNC(=N)N)NC(=O)C2CCCN2Cc2cccc(c2)-c2ccccc2CNC(=O)C(CCCNC(=N)N)NC1=O (stereo not drawn)	1
CN1CC(=O)NC(CCCNC(=N)N)C(=O)NC(CCC(N)=O)C(=O)NC(CCCNC(=N)N)C(=O)NCc2ccccc2-c2cccc(c2)C1 (stereo not drawn)	4
N=C(N)NCCCC1NC(=O)C(CCC(N)=O)NC(=O)C(CCCNC(=N)N)NC(=O)C2CCCN2Cc2cccc(c2)-c2ccccc2CNC1=O (stereo not drawn) [CY007458]	6
C=CC(C)(C)OC[C@H]1O[C@H](O[C@@H]2C3=C([C@H](C)COC(C)=O)C[C@H](O)[C@]3(C)/C=C3/[C@@H](COC)CC[C@H]3[C@@H](C)[C@H]2O)[C@H](O)[C@@H](OC(C)=O)[C@@H]1O [FC-A, fusicoccin A, reference compound]	1
N=C(N)NCCCC1NC(=O)C(CCC(N)=O)NC(=O)C(CCCNC(=N)N)NC(=O)C2CCCN2Cc2cccc(c2)-c2ccccc2CNC1=O (stereo not drawn) [CY007455]	5
N=C(N)NCCCC1NC(=O)C(CCCCN)NCc2ccccc2Sc2ccccc2CNC(=O)C(Cc2ccc(O)cc2)NC1=O (stereo not drawn)	3

Input: Report value: FP signal, system: 14-3-3β/CFTRpS753pS768 complex (Homo sapiens, UniProt P13569+P31946), molecule: NCCCCC1NCc2ccccc2Sc2ccccc2CNC(=O)C(Cc2cccc(Cl)c2)NC(=O)C(Cc2ccc(O)cc2)NC1=O (stereo not drawn)
Output: 6

Input: Report value: FP signal, system: 14-3-3β/CFTRpS753pS768 complex (Homo sapiens, UniProt P13569+P31946), molecule: NCCCC1NCc2ccccc2Sc2ccccc2CNC(=O)C(Cc2c[nH]c3ccccc23)NC(=O)C(Cc2ccccc2)NC1=O (stereo not drawn)
Output: 5

Input: Report value: FP signal, system: 14-3-3β/CFTRpS753pS768 complex (Homo sapiens, UniProt P13569+P31946), molecule: N=C(N)NCCCC1NCc2ccccc2Sc2ccccc2CNC(=O)C(Cc2ccc(O)cc2)NC(=O)C(CCCN)NC1=O (stereo not drawn)
Output: 4

----------
# STUDY_TARGET: FITC-labeled CFTRpS753pS768 peptide (no 14-3-3) (Homo sapiens)
# Construct: made in house; host or cells: synthetic peptide
# ASSAY_PROCEDURE: Dose-response FP control assay in the absence of 14-3-3
# Type: binding
# CONDITION: No 14-3-3; compound 953.7 pM
MEASURE: FP signal
Could you keep your reply to the number by itself?

MOLECULE	MEASUREMENT
N=C(N)NCCCC1NC(=O)C(CCC(N)=O)NC(=O)C(CCCNC(=N)N)NC(=O)C2CCCN2Cc2cccc(c2)-c2ccccc2CNC1=O (stereo not drawn) [CY007458]	5
N=C(N)NCCCC1NCc2ccccc2Sc2ccccc2CNC(=O)C(Cc2ccc(O)cc2)NC(=O)C(CCCN)NC1=O (stereo not drawn)	5
C=CC(C)(C)OC[C@H]1O[C@H](O[C@@H]2C3=C([C@H](C)COC(C)=O)C[C@H](O)[C@]3(C)/C=C3/[C@@H](COC)CC[C@H]3[C@@H](C)[C@H]2O)[C@H](O)[C@@H](OC(C)=O)[C@@H]1O [FC-A, fusicoccin A, reference compound]	5
NCCCCC1NCc2ccccc2Sc2ccccc2CNC(=O)C(Cc2cccc(Cl)c2)NC(=O)C(Cc2ccc(O)cc2)NC1=O (stereo not drawn)	6
NCCCC1NCc2ccccc2Sc2ccccc2CNC(=O)C(Cc2c[nH]c3ccccc23)NC(=O)C(Cc2ccccc2)NC1=O (stereo not drawn)	5

Here's the next entry for you.
Input: Report FP signal, nothing else, for this molecule: N=C(N)NCCCC1NC(=O)C(CCCCN)NCc2ccccc2Sc2ccccc2CNC(=O)C(Cc2ccc(O)cc2)NC1=O (stereo not drawn)
Output: 3

----------
# STUDY_TARGET: 14-3-3β/CFTRpS753pS768 complex (Homo sapiens, UniProt P13569+P31946)
# Construct: His6 (cleaved yes); made in house; peptide synthetic
# ASSAY_PROCEDURE: Dose-response fluorescence polarization (FP) assay, compound titration
# Type: binding
# CONDITION: With 14-3-3; compound 3.125e-5 M
MEASURE: FP signal
Could you keep your reply to the number by itself?

// below: answered compounds
COMPOUND	FP signal
N=C(N)NCCCC1NC(=O)C(CCC(N)=O)NC(=O)C(CCCNC(=N)N)NC(=O)C2CCCN2Cc2cccc(c2)-c2ccccc2CNC1=O (stereo not drawn) [CY007455]	26
CN1CC(=O)NC(CCCNC(=N)N)C(=O)NC(CCC(N)=O)C(=O)NC(CCCNC(=N)N)C(=O)NCc2ccccc2-c2cccc(c2)C1 (stereo not drawn)	18
N=C(N)NCCCC1NC(=O)C(CCC(N)=O)NC(=O)C(CCCNC(=N)N)NC(=O)C2CCCN2Cc2cccc(c2)-c2ccccc2CNC1=O (stereo not drawn) [CY007458]	33
NCCCC1NCc2ccccc2Sc2ccccc2CNC(=O)C(Cc2c[nH]c3ccccc23)NC(=O)C(Cc2ccccc2)NC1=O (stereo not drawn)	90
CC1NC(=O)C(CCCNC(=N)N)NC(=O)C2CCCN2Cc2cccc(c2)-c2ccccc2CNC(=O)C(CCCNC(=N)N)NC1=O (stereo not drawn)	24

Input: Report FP signal, nothing else, for this compound: NCCCCC1NCc2ccccc2Sc2ccccc2CNC(=O)C(Cc2cccc(Cl)c2)NC(=O)C(Cc2ccc(O)cc2)NC1=O (stereo not drawn)
Output: 30

Input: Report FP signal, nothing else, for this compound: N=C(N)NCCCC1NC(=O)C(CCCCN)NCc2ccccc2Sc2ccccc2CNC(=O)C(Cc2ccc(O)cc2)NC1=O (stereo not drawn)
Output: 16

Input: Report FP signal, nothing else, for this compound: C=CC(C)(C)OC[C@H]1O[C@H](O[C@@H]2C3=C([C@H](C)COC(C)=O)C[C@H](O)[C@]3(C)/C=C3/[C@@H](COC)CC[C@H]3[C@@H](C)[C@H]2O)[C@H](O)[C@@H](OC(C)=O)[C@@H]1O [FC-A, fusicoccin A, reference compound]
Output: 53

Input: Report FP signal, nothing else, for this compound: N=C(N)NCCCC1NCc2ccccc2Sc2ccccc2CNC(=O)C(Cc2ccc(O)cc2)NC(=O)C(CCCN)NC1=O (stereo not drawn)
Output: 122
